I'd appreciate it if you could supply ability of recombinant RTK ligand to confer resistance values for the items below.
test system: six V600E BRAF melanoma cell lines; experiment: Screening of recombinant RTK ligands for ability to confer resistance to BRAFi (PLX4720) or MEKi (PD184352) (Table 4); assay type: cell-based, human; design: scale not given here; conditions: SK-MEL-28, PD184352 - 1 uM, ligand 100 ng/ml

Can you share its ability of recombinant RTK ligand to confer resistance? I mean this molecule: GDNF (protein, UniProt P39905 78-211, looked up) Glial cell line-derived …: SPDKQMAVLPRRERNRQAAAANPENSRGKGRRGQRGKNRGCVLTAIHLNVTDLGLGYETKEELIFRYCSGSCDAAETTYDKILKNLSRNRRLVSDKVGQACCRPIAFDDDLSFLDDNLVYHILRKHSAKRCGCI 0.96

Can you share its ability of recombinant RTK ligand to confer resistance? I mean this molecule: VEGF-C (protein, UniProt P49767 112-227, looked up) Vascular endothelial growth …: AHYNTEILKSIDNEWRKTQCMPREVCIDVGKEFGVATNTFFKPPCVSVYRCGGCCNSEGLQCMNTSTSYLSKTLFEITVPLSQGPKPVTISFANHTSCRCMSKLDVYRQVHSIIRR 1.08

Can you share its ability of recombinant RTK ligand to confer resistance? I mean this molecule: Ephrin-A4 (protein, UniProt P52798 26-170, looked up) Ephrin-A4: LRHVVYWNSSNPRLLRGDAVVELGLNDYLDIVCPHYEGPGPPEGPETFALYMVDWPGYESCQAEGPRAYKRWVCSLPFGHVQFSEKIQRFTPFSLGFEFLPGETYYYISVPTPESSGQCLRLQVSVCCKERKSESAHPVGSPGES 1.07

Can you share its ability of recombinant RTK ligand to confer resistance? I mean this molecule: BDNF (protein, UniProt P23560 19-247, looked up) Neurotrophic factor BDNF …: APMKEANIRGQGGLAYPGVRTHGTLESVNGPKAGSRGLTSLADTFEHVIEELLDEDQKVRPNEENNKDADLYTSRVMLSSQVPLEPPLLFLLEEYKNYLDAANMSMRVRRHSDPARRGELSVCDSISEWVTAADKKTAVDMSGGTVTVLEKVPVSKGQLKQYFYETKCNPMGYTKEGCRGIDKRHWNSQCRTTQSYVRALTMDSKKRIGWRFIRIDTSCVCTLTIKRGR 1.07

Can you share its ability of recombinant RTK ligand to confer resistance? I mean this molecule: flt-3 ligand (FL) (protein, UniProt P49771 27-235, looked up) Fms-related tyrosine kinase 3 …: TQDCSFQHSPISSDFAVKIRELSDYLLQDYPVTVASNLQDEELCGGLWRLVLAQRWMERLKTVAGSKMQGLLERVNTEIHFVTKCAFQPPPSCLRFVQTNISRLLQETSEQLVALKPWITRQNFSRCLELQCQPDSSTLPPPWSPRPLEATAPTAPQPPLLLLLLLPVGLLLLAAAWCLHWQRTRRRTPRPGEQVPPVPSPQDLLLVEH 0.99
